target: LIG1 full-length (human, UniProt P18858 1-919); experiment: BLI; no Mg2+ listed in buffer; 1 mM HEPES pH 7.4, 20 mM NaCl, 0.02% BSA, 0.002% Tween 20 (BLI, C-Trap, TIRF; TIRF plus oxygen scavenger and 10 mM Trolox); BLI sensors hydrated at 20 C, assay; conditions: protein: recombinant; tags: 6xHis (pET-24b); AF488 or Cy5 labelled for single-molecule assays; Methods says 3'); nicked duplex
Sequence (P18858 whole entry): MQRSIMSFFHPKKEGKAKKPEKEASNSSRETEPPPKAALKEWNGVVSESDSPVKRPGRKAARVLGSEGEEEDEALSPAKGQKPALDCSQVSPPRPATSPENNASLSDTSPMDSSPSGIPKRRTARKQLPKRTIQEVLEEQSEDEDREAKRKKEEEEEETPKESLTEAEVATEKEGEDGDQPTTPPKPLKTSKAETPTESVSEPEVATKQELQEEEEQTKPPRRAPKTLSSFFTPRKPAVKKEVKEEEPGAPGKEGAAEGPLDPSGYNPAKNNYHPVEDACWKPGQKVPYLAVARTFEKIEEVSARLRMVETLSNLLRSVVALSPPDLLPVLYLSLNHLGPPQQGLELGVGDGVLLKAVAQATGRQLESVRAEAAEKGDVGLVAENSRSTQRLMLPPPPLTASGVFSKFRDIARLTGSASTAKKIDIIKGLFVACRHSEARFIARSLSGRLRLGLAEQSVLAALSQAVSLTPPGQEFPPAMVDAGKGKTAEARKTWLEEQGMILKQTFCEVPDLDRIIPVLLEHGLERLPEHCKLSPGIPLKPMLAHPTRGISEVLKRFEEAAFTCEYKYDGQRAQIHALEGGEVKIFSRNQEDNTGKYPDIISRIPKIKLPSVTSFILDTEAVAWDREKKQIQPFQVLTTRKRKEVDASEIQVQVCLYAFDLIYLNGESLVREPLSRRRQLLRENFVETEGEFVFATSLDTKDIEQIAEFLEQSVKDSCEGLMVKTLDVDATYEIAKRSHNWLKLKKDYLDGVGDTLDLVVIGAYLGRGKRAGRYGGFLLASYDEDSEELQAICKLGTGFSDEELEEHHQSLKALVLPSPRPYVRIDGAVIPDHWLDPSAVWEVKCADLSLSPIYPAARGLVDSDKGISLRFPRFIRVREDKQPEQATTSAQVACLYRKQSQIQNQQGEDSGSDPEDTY
measured-quantity: Kd
The answer consists of two parts: a number and, after it, its unit.

For nick DNA 3'-dG:C/5'-Bio (BLI) (dsDNA, single nick) DNA 1: CATGGGCGGCATGAACCGGAGGCCCATCCTCACC DNA 2: GGTGAGGATGGGCCTCCGGTTCATGCCGCCCATG , what is its reported Kd?
95 nM
